- Measured On: Sodium channel protein type 5 subunit alpha (Homo sapiens, UniProt Q14524)
- Sequence (Q14524 whole entry): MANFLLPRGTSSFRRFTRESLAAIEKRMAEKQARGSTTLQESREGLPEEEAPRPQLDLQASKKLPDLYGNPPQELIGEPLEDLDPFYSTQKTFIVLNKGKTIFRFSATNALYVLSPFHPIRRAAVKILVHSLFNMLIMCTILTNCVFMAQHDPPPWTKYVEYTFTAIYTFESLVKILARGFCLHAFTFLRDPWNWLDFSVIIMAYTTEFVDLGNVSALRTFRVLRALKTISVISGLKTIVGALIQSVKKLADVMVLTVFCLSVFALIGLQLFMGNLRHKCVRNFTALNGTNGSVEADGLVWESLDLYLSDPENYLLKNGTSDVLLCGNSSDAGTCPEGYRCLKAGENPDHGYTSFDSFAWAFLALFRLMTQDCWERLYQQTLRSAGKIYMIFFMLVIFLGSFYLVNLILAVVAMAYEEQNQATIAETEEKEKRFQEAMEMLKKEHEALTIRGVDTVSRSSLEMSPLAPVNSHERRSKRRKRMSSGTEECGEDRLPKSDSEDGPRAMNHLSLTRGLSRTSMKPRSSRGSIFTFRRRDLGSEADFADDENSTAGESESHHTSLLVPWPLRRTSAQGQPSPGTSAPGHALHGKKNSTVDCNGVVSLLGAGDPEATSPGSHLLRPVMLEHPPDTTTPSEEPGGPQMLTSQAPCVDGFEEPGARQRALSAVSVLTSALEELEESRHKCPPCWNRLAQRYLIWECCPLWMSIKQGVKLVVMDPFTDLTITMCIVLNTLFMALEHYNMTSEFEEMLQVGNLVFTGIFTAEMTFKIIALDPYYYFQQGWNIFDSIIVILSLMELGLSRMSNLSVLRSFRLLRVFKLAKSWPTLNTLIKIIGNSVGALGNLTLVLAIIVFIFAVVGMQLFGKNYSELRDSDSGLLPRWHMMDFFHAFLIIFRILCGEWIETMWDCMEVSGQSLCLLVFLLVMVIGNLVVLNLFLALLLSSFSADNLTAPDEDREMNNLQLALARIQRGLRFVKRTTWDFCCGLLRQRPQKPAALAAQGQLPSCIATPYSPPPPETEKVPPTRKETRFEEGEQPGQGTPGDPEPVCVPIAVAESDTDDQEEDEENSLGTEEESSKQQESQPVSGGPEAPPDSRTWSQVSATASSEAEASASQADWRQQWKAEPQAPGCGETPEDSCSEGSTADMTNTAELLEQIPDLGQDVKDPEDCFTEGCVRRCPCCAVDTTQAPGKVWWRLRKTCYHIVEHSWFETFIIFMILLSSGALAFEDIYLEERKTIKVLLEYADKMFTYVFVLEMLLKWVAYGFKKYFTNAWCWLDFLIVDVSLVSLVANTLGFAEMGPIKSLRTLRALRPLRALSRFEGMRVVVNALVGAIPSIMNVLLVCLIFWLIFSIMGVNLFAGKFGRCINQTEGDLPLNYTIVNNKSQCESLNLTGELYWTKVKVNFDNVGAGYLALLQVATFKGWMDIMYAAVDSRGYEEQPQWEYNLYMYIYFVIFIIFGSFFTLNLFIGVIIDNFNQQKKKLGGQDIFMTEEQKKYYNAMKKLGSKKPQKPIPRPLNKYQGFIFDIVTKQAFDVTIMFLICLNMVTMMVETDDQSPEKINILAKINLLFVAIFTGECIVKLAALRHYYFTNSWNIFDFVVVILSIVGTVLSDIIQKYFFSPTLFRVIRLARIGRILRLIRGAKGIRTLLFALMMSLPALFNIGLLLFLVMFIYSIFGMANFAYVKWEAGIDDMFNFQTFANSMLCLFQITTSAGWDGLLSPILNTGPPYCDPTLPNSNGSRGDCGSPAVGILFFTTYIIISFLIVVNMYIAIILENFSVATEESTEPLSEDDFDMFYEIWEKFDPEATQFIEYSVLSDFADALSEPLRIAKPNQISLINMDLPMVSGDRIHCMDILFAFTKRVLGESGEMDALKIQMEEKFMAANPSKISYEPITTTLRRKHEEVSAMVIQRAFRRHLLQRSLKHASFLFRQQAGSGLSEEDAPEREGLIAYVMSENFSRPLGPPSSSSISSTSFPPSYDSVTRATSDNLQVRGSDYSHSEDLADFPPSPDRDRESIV
- Method Summary: Inhibition of human sodium Nav1.5 channel expressed in HEK293 cells assessed as inhibition of veratridine-induced late sodium current elicited at -30 mV from holding potential of -110 mV at 10 uM by patch clamp technique
- Type: cell-based
- Test Conditions: HEK293, human
Categories are defined by ranges of inhibition at 10 µM, namely LOW: < 30%; MEDIUM: ≥ 30% and < 40%; HIGH: ≥ 40%

# Molecule, Assigned Category
rows = [
    ("COc1ccc(CCN(C)CCCOc2nsc(-c3ccccc3)n2)cc1OC", "HIGH"),
    ("COc1ccccc1SC[C@H](CN[C@@H]1COc2ccccc2SC1)OC", "LOW"),
    ("COc1ccccc1SC[C@H](O)CN[C@@H]1COc2ccccc2SC1", "LOW"),
    ("COc1ccccc1SC[C@@H](C)CN[C@@H]1COc2ccccc2SC1", "HIGH"),
    ("C=C(CN[C@@H]1COc2ccccc2SC1)CSc1ccccc1OC", "MEDIUM"),
    ("CCCO[C@@H](CN[C@@H]1COc2ccccc2SC1)CSc1ccccc1OC", "LOW"),
    ("COc1ccccc1SCC(O)CN[C@@H]1COc2ccccc2SC1 (mixture of isomers)", "MEDIUM"),
    ("COc1ccccc1SC[C@@H](C)CN[C@H]1COc2ccccc2SC1", "MEDIUM"),
    ("COc1ccccc1SC[C@@H](O)CN[C@@H]1COc2ccccc2SC1", "HIGH"),
    ("COc1ccccc1SC[C@H](CN[C@@H]1COc2ccccc2SC1)C(C)C", "MEDIUM"),
    ("CCC[C@@H](CN[C@@H]1COc2ccccc2SC1)CSc1ccccc1OC", "LOW"),
]
